The measurements presented in this section are drawn from the supplement of paper PMC11061612.

Tested on: EW-3 (Ewing's Sarcoma);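 further: after 72 h of two-drug dosing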
Assay: Bliss excess, mean over the matrix (fraction); higher = more synergy
Endpoint Label: Bliss excess
The answer should be a number; do not append a unit.

COc1nnc2ccc(N3CCC(c4ccc(OCCN5CCN(C)C(=O)[C@H]5C)cc4)CC3)nn12 [AZD5153] + C[C@@H]1COCCN1C2=NC(=NC(=C2)C3(CC3)[S@](=N)(=O)C)C4=C5C=CNC5=NC=C4 [AZD6738] (first compound max 1 µM, 7x7, partner max 10 µM) ... -0.0647
Cc1cc2ncnn2cc1Nc1ncc2c(n1)n(C1CCOCC1)c(=O)n2C [AZD7648] + C[C@@H]1COCCN1C2=NC(=NC(=C2)C3(CC3)[S@](=N)(=O)C)C4=C5C=CNC5=NC=C4 [AZD6738] (first compound max 10 µM, 7x7, partner max 10 µM) ... -0.0607
CCN(CCO)CCCOc1ccc2c(Nc3cc(CC(=O)Nc4cccc(F)c4)[nH]n3)ncnc2c1 [AZD2811] + C=CCn1c(=O)c2cnc(Nc3ccc(N4CCN(C)CC4)cc3)nc2n1-c1cccc(C(C)(C)O)n1 [AZD1775] (first compound max 1 µM, partner max 1 µM) ... 0.0844
C[C@@H]1COCCN1c1cc(C2([S@](C)(=N)=O)CC2)nc(-c2ccnc3[nH]ccc23)n1 [AZD6738] + C1CC(C1)(C(=O)[O-])C(=O)[O-].N.N.[Pt+2] [Carboplatin] (first compound max 10 µM, 7x7, partner max 10 µM) ... 0.0061
C[C@@H](Nc1cc(F)cc(F)c1)c1cc(C(=O)N(C)C)cc2c(=O)cc(N3CCOCC3)oc12 [AZD8186] + CC(=O)c1c(C)c2cnc(Nc3ccc(N4CCNCC4)cn3)nc2n(C2CCCC2)c1=O [Palbociclib] (first compound max 10 µM, 7x7, partner max 10 µM) ... 0.0752
Cc1cc2ncnn2cc1Nc1ncc2c(n1)n(C1CCOCC1)c(=O)n2C [AZD7648] + CN(C)CCCOc1ccc(-c2ccc3ncc4c(c3c2)n(C2CCOCC2)c(=O)n4C)cn1 [AZD0156] (first compound max 10 µM, 7x7, partner max 1 µM) ... -0.0281

Now examine the next entry.
Sample CN(CCO)CC[C@H](CSc1ccccc1)Nc1ccc(S(=O)(=O)NC(=O)c2ccc(N3CCC([C@@H](O)c4ccccc4-c4ccc(Cl)cc4)CC3)cc2)cc1S(=O)(=O)C(F)(F)F [AZD4320] + CC(=O)O[C@H]1C(=O)[C@@]2(C)[C@H]([C@H](OC(=O)c3ccccc3)[C@]3(O)C[C@H](OC(=O)[C@H](O)[C@@H](NC(=O)c4ccccc4)c4ccccc4)C(C)=C1C3(C)C)[C@]1(OC(C)=O)CO[C@@H]1C[C@@H]2O [Paclitaxel] (first compound max 1 µM, 7x7, partner max 3 µM) — what was its Bliss excess? 0.0269
